experiment: Solubility of Compound 1 in organic solvents other than MTBE/n-heptane; type: physicochemical; conditions: n-butanol, 50 °C, organic solvent or mixture, thermodynamic from solid
QUANTITY: solubility

QUERY: Give the reported solubility for this compound. CCOC(=O)[C@@H]1CC2(CCN(c3cc(O[C@H](c4ccc(Cl)cc4-c4ccccc4)C(F)(F)F)nc(N)n3)CC2)CN1
RESULT: > 758 mg/mL

* * *

assay: Solubility determination by HPLC; assay type: physicochemical; details: buffer pH 1.2, pH 1.2, simulated gastric fluid, thermodynamic from solid, Buffer pH 1.2; read-out: Conc. Actual
QUANTITY: solubility thermodynamic (mg/mL)
Express the result in mg/mL but write the number alone.

QUERY: Give the reported solubility thermodynamic for this molecule. CCOC(=O)[C@@H]1CC2(CCN(c3cc(O[C@H](c4ccc(Cl)cc4-c4ccccc4)C(F)(F)F)nc(N)n3)CC2)CN1
RESULT: 49

* * *

test: Solubility of Compound 1 in organic solvents other than MTBE/n-heptane; type: physicochemical; conditions: MTBE, 50 °C, organic solvent or mixture, thermodynamic from solid
QUANTITY: solubility

QUERY: Give the reported solubility for this molecule. CCOC(=O)[C@@H]1CC2(CCN(c3cc(O[C@H](c4ccc(Cl)cc4-c4ccccc4)C(F)(F)F)nc(N)n3)CC2)CN1
RESULT: > 615 mg/mL

* * *

Assay: Shake-flask solubility determination with stepwise addition of solvent
Type: physicochemical
Conditions: toluene, organic solvent or mixture, thermodynamic from solid, toluene; read-out: Solubility
Excerpt: The method applied was a shake-flask solubility determination with stepwise addition of the solvent until complete dissolution is observed visually.
QUANTITY: solubility

QUERY: Give the reported solubility for this compound. CCOC(=O)[C@@H]1CC2(CCN(c3cc(O[C@H](c4ccc(Cl)cc4-c4ccccc4)C(F)(F)F)nc(N)n3)CC2)CN1 [Form 1]
RESULT: 98 to 980 mg/mL

* * *

experiment: Solubility of Compound 1, Form 3 in MTBE/n-heptane mixtures; assay type: physicochemical; details: MTBE/n-heptane 1/0, 45 °C, organic solvent or mixture, thermodynamic from solid
QUANTITY: solubility

QUERY: Give the reported solubility for this molecule. CCOC(=O)[C@@H]1CC2(CCN(c3cc(O[C@H](c4ccc(Cl)cc4-c4ccccc4)C(F)(F)F)nc(N)n3)CC2)CN1 [Form 3]
RESULT: > 500 mg/mL

* * *

experiment: Shake-flask solubility determination with stepwise addition of solvent; assay type: physicochemical; settings: methyl tert-butyl ether, organic solvent or mixture, thermodynamic from solid, methyl tert-butyl ether; read-out: Solubility
QUANTITY: solubility

QUERY: Give the reported solubility for this compound. CCOC(=O)[C@@H]1CC2(CCN(c3cc(O[C@H](c4ccc(Cl)cc4-c4ccccc4)C(F)(F)F)nc(N)n3)CC2)CN1 [Form 1]
RESULT: 102 to 1020 mg/mL
